experimental protocol: Cytotoxicity against mock-infected human MT4 cells by MTT assay
Type: cell-based
measured endpoint: CC50 (µM)
Report the figure in µM without appending any unit label.

IN: For "Cc1cc(C)c(-n2c(SCC(=O)Nc3cccnc3Cl)nc3cccnc32)c(C)c1" , what is its reported CC50?
OUT: 6

IN: For "Cc1cc(C)c(-n2c(SCC(=O)Nc3ccc(C)cc3Br)nc3cnccc32)c(C)c1" , what is its reported CC50?
OUT: 5.9
